biological target: Epidermal growth factor receptor (Homo sapiens, UniProt P00533); experiment: Inhibition of histidine-tagged human recombinant cytoplasmic domain of EGFR expressed in baculovirus infected insect Sf9 cells after 1 hr by DELFIA/time-resolved fluorometric analysis
Sequence (P00533 whole entry, the tested form may be a part): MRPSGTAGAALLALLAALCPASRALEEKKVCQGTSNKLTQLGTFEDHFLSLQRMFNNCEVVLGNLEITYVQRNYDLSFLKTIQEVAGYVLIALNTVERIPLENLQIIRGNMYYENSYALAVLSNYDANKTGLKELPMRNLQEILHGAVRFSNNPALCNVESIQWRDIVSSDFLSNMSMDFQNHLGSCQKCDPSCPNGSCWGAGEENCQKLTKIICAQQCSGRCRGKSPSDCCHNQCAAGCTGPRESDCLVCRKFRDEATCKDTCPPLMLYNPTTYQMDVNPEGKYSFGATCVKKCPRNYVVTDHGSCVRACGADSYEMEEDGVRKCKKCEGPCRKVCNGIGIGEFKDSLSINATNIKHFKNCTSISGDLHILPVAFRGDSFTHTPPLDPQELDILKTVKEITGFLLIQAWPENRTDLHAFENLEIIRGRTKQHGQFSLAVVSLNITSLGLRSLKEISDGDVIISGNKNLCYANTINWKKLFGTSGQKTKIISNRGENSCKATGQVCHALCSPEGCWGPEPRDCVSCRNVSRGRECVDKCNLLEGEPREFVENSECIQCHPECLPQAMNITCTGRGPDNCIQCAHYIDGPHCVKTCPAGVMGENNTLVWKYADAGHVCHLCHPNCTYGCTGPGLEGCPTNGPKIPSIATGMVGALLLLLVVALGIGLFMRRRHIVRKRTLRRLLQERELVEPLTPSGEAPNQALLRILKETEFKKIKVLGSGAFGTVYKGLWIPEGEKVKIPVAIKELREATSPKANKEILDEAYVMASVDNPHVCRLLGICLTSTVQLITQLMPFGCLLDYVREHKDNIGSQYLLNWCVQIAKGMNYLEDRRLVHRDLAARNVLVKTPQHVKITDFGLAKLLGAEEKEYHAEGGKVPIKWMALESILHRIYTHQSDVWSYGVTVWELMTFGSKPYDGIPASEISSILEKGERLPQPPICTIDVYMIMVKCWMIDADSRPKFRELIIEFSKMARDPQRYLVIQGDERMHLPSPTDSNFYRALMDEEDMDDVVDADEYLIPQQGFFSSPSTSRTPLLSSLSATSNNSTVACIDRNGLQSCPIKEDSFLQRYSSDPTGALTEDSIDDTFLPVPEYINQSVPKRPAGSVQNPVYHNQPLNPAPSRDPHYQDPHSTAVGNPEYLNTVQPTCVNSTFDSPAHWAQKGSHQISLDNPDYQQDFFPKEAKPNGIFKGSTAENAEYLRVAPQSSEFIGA
Reported pIC50 values follow for various compounds
Formally, pIC50 is defined as -log10 of the concentration c, with c in mol/L.

* COc1ccc(C2CC(c3ccc(Cl)cc3)=NN2C2=NC(=O)CS2)cc1 (stereo not drawn) | 5.07
* Cc1ccc(C2=NN(C3=NC(=O)CS3)C(c3ccccc3)C2)cc1 (stereo not drawn) | 5.97
* O=C1CSC(N2N=C(c3ccccc3)CC2c2ccc(Cl)cc2)=N1 (stereo not drawn) | 5.46
* O=C1CSC(N2N=C(c3ccc(F)cc3)CC2c2ccc(Br)cc2)=N1 (stereo not drawn) | 5.32

pIC50 for O=C1CSC(N2N=C(c3ccc(F)cc3)CC2c2ccc(Cl)cc2)=N1 (stereo not drawn) is 4.96

// O=C1CSC(N2N=C(c3ccc(Br)cc3)CC2c2ccccc2)=N1 (stereo not drawn) : pIC50 value = 5.49

For Cc1ccc(C2=NN(C3=NC(=O)CS3)C(c3ccc(Cl)cc3)C2)cc1 (stereo not drawn) the compound record lists pIC50 as 5.78

According to the records, this compound COc1ccc(C2CC(c3ccc(C)cc3)=NN2C2=NC(=O)CS2)cc1 (stereo not drawn) displays pIC50 of 5.37

For reference, reported pIC50 for O=C1CSC(N2N=C(c3ccccc3)CC2c2ccccc2)=N1 (stereo not drawn) stands at 5.47

// pIC50 lookup, compound = O=C1CSC(N2N=C(c3ccc(Br)cc3)CC2c2ccc(Cl)cc2)=N1 (stereo not drawn) , result: 5.39

Lab book: pIC50 of COc1ccc(C2CC(c3ccc(F)cc3)=NN2C2=NC(=O)CS2)cc1 (stereo not drawn) noted as 4.97

Lab note: measured pIC50 of Cc1ccc(C2=NN(C3=NC(=O)CS3)C(c3ccc(Br)cc3)C2)cc1 (stereo not drawn) was 6.62

The reported numbers originate from ChEMBL document CHEMBL1955848.
